- System: ZAK;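 further: KINOMEscan kinase panel screen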
- measurement.parameters: concentration: 1 μM, replicates: in singlicate; n = 1
measurement.label: %Inh

# compound, measured.result
rows = [
    ("Cl.Cl.NCC(NC(=O)c1cc(-c2cccnc2)c(-c2ccnc3[nH]ccc23)s1)c1ccccc1 (stereo not drawn)", "7%"),
    ("Cc1ccc(C)c(NC(=O)Nc2ccc(C)c(-c3ccc(C(=O)Nc4ccncc4)cc3)c2)c1", "70%"),
    ("COc1cccc(NC(=O)NCCNc2ccnc(Nc3ccc(F)cc3)n2)c1", "34%"),
    ("O=C(Nc1n[nH]c2nc(-c3ccccc3)ccc12)C1CC1", "15%"),
    ("Cc1cc(-c2ccnc(Nc3cccc(C#N)c3)n2)cc(C)c1O", "16%"),
    ("Fc1cc(Cl)ccc1Nc1ccnc2cc(-c3ccc(CN4CCOCC4)o3)ccc12", "50%"),
    ("NCCC(NC(=O)c1cc(Br)c(-c2ccnc3[nH]ccc23)s1)c1ccccc1.O=C(O)C(F)(F)F.O=C(O)C(F)(F)F (stereo not drawn)", "10%"),
    ("O=C(O)C(F)(F)F.O=c1[nH]ccc2nc(N[C@@H]3CCNC3)nc(Nc3cc(Cl)cc(Cl)c3)c12", "0%"),
    ("CN(C)c1ncnc2nc[nH]c12", "0%"),
    ("CNc1nccc(-c2ccc3c(N)n[nH]c3c2)n1", "22%"),
    ("CCn1c(-c2nonc2N)nc2c(-c3ccccc3)ncc(OCCCN)c21.O=C(O)C(F)(F)F.O=C(O)C(F)(F)F", "0%"),
    ("Cc1ccc(-c2ccc3occ(-c4ccc(S(C)=O)cc4)c3c2)nn1 (stereo not drawn)", "0%"),
    ("COC(=O)Nc1nc2ccc(Oc3ccc(NC(=O)Nc4cc(C(F)(F)F)ccc4F)cc3)cc2[nH]1.Cl", "98%"),
    ("Fc1cc(Cl)ccc1Nc1ccnc2cc(-c3ccc(CN4CCSCC4)o3)ccc12", "52%"),
    ("Cc1ccc(NC(=O)c2ccc(Cl)c(Cl)c2)cc1-c1ccc(C(=O)Nc2ccncc2)cc1", "49%"),
    ("CN(c1ccc(F)c(NC(=O)c2cccc(OC(C)(C)C#N)c2Cl)c1)c1ccc2nc(NC(=O)C3CC3)sc2n1", "64%"),
    ("CC(C)c1nc(-c2ccc(F)c(NS(=O)(=O)c3c(F)cccc3F)c2)c(-c2ccnc(Nc3ccc(N4CCOCC4)nc3)n2)s1", "98.3%"),
    ("Cl.Cl.NC(CNC(=O)c1cc(Br)c(-c2ccnc3[nH]ccc23)s1)c1ccccc1 (stereo not drawn)", "11%"),
    ("COc1ccc(C2=C(Nc3cccc(O)c3)C(=O)NC2=O)cc1", "7%"),
    ("CC(C)(C)c1ccc(C(=O)Nc2cn3cc(-n4ccnc4)ccc3n2)cc1", "7%"),
    ("N#CC1(c2cccc(C(=O)Nc3cccc(Oc4ccc5nc(NC(=O)C6CC6)sc5n4)c3)c2)CC1", "90%"),
    ("COC(=O)Nc1nc2cc(Oc3ccc(NC(=O)Nc4cccc(SC)c4)cc3)ccc2[nH]1.Cl", "96.3%"),
    ("COc1cccc2c(-c3ccncc3)c(-c3ccc(F)cc3)nn12", "16%"),
    ("Cl.O=C(Nc1ccc(Oc2ccc3[nH]c(NC(=O)c4ccco4)nc3c2)cc1)Nc1cc(C(F)(F)F)ccc1F", "99.2%"),
    ("CC(C)NCC(Cc1ccccc1)NC(=O)c1cc(Br)c(-c2ccnc3[nH]ccc23)s1.Cl.Cl (stereo not drawn)", "73%"),
    ("COc1cccc(-c2nc(-c3ccccc3)[nH]c2-c2ccncc2)c1", "5%"),
    ("Cc1ccc(NC(=O)c2cccc(N3CCCCC3)c2)cc1-c1ccc(C(=O)NCC2CC2)cc1", "33%"),
    ("O=C(O)C(F)(F)F.O=c1[nH]ccc2nc(N[C@@H]3CCNC3)nc(Nc3ccc4c(c3)S(=O)(=O)CC4)c12", "0%"),
    ("CC(C)c1nc(-c2cccc(NS(=O)(=O)c3c(F)cccc3F)c2)c(-c2ccnc(Nc3ccc(N4CCOCC4)nc3)n2)s1.Cl", "98.6%"),
    ("COc1cc(Nc2ccnc3cc(-c4ccncc4)ccc23)cc(OC)c1OC.Cl", "49%"),
    ("Cc1cc(-c2c(-c3ccc(F)cc3)ncn2CCCN2CCOCC2)nc(N)n1", "13%"),
    ("CSc1ccc(NC2=C(c3ccc(Cl)cc3)C(=O)NC2=O)cc1", "28%"),
    ("CN(c1ccc(NC(=O)N2CCN(CCCN3CCOCC3)CC2)cc1)c1ccnc(Nc2ccc(CS(C)(=O)=O)cc2)n1.Cl", "5%"),
]
